target: Ghrelin receptor (Homo sapiens, UniProt Q92847); assay: Receptor Selection and Amplification Technology (R-SAT) assay; assay type: cell-based; parameters: expressed in transfected cells; host or cells: NIH3T3; settings: negative logarithm of ligand concentration causing 50% inhibition of constitutive receptor response; transfected NIH3T3 cells; '—' not defined (nd used separately); read-out: RSAT pIC50 (converted)
Sequence (Q92847 whole entry): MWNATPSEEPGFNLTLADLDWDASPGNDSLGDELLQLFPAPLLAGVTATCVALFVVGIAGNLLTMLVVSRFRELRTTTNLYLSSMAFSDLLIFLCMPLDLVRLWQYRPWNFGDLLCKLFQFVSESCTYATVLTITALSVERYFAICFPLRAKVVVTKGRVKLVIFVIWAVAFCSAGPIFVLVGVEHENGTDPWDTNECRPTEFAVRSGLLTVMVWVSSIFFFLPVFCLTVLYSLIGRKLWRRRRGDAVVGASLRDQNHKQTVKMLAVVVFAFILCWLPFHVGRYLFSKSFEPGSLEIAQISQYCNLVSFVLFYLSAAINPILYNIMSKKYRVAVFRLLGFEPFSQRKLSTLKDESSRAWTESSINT
Binary label based on IC50 with cut-off 30 nM: below gives fulfilled, not below gives not fulfilled.

Here's what some known entries look like.
compound	category
CC(=O)c1cn(CCCN2CCN(CCOc3ccccc3)CC2)c2c(C#N)cccc12	not fulfilled
CCc1cccc2c(C(C)=O)cn(CCCN3C4CCC3CC(CCc3ccccc3)C4)c12 (centres unmarked)	fulfilled
CC(=O)c1cn(CC(C)CN2C3CCC2CC(OCC2CC2)C3)c2ccccc12 (centres unmarked)	not fulfilled
CC(=O)CCc1cn(CCCN2CCN(C(C)c3ccccc3)CC2)c2ccccc12 (centres unmarked)	not fulfilled

Consider now this further compound.
Does the reported IC50 of COc1cccc2c(C(=O)NCc3cccc(C)c3)cn(CCCN3C4CCC3CC(Oc3ccc(F)cc3)C4)c12 (centres unmarked) stay below 30 nM?
fulfilled
